The origin of these recorded values is patent US20240116985A1.

# TARGET: full-length beta-Catenin (Uniprot ID P35222) (Homo sapiens)
# Construct: 10 nM full-length beta-Catenin (Uniprot ID P35222)
# Sequence (P35222 1-781): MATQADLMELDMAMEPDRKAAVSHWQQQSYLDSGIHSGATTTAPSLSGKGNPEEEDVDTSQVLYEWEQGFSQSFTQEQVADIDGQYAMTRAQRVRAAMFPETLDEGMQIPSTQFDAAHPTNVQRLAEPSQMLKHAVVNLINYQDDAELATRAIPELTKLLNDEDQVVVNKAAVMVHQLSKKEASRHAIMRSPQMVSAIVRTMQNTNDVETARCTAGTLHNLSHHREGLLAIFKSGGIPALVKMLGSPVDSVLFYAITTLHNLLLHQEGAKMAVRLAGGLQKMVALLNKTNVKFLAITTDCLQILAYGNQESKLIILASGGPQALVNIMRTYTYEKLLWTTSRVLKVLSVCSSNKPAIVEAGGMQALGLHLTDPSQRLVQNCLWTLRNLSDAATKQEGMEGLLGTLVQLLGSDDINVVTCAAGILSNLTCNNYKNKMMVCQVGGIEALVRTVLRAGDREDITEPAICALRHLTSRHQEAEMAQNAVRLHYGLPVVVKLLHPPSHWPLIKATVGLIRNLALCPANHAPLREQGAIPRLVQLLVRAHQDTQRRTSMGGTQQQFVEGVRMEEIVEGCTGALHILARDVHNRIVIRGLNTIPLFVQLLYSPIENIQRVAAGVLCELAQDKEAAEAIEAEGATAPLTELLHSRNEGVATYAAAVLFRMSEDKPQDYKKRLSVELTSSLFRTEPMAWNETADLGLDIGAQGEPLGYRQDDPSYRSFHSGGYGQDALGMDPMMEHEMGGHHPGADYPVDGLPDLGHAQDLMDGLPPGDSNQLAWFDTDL
# MEASUREMENT DESCRIPTION: Fluorescence polarization IC50 (beta-catenin / 5FAM-TCF4 10-53 competition)
# Format: binding
# EXPERIMENTAL SETUP: fluorescence polarization; read-out: beta-Catenin FP IC50
ENDPOINT NAME: pIC50
pIC50 here is simply -log10 of the concentration when that concentration is written in mol/L.

Param item = CC(=O)N1CCC[C@]12CC=CCCCC1(CCCC=CCCCOC(=O)N3CC[C@](C(=O)N[C@@H](Cc4ccsc4)C(=O)N[C@@H](Cc4csc5ccccc45)C(=O)N[C@@H](CCC(N)=O)C(N)=O)(C3)NC(=O)[C@H](CC(N)=O)NC(=O)[C@H](Cc3ccccc3)NC(=O)[C@H](C)NC(=O)[C@H](C)NC(=O)[C@H](CC(=O)O)NC(=O)[C@H](CC(=O)O)NC1=O)NC(=O)[C@H](CC(C)(C)C)NC(=O)[C@H](CC(=O)O)NC2=O (stereo partly drawn) [I-2018] ; retrieve measured pIC50.
5.78

Same for CC(=O)N1CCC[C@]12CC=CCCCC1(CCCC=CCCCOC(=O)N3CC[C@@](C(=O)N[C@@H](Cc4ccsc4)C(=O)N[C@@H](Cc4csc5ccccc45)C(=O)N[C@H](C(N)=O)C(C)C)(C3)NC(=O)[C@H](CC(N)=O)NC(=O)[C@H](Cc3ccccc3)NC(=O)[C@H](C)NC(=O)C(C)(C)NC(=O)[C@H]([C@@H](C)O)NC(=O)[C@H](CC(N)=O)NC1=O)NC(=O)[C@H](CC(C)(C)C)NC(=O)[C@H](CC(=O)O)NC2=O (stereo partly drawn)
6.32

Same for CC(=O)N1CCC[C@]12CC=CCCCC1(CCCC=CCCCOC(=O)N3CC[C@@](C(=O)N[C@@H](Cc4ccccc4Cl)C(=O)N[C@@H](Cc4csc5ccccc45)C(=O)N[C@@H](CCC(N)=O)C(N)=O)(C3)NC(=O)[C@H](CC(C)C)NC(=O)[C@H](Cc3ccccc3)NC(=O)CNC(=O)[C@H](C)NC(=O)[C@H](Cc3cccc(C(=O)O)c3)NC(=O)[C@H](CC(=O)O)NC1=O)NC(=O)[C@H](CC(C)(C)C)NC(=O)[C@H](CC(=O)O)NC2=O (stereo partly drawn)
7.38
